// data source = ChEMBL document CHEMBL3758163

Please provide measured inhibition for the entries that follow.
biological target: Tyrosine-protein kinase JAK2 (Homo sapiens); assay: Inhibition of JAK2 (unknown origin) at 500 nM
Answers are plain numbers, in %.

// each listed molecule needs a value for inhibition
1. COc1cc(C(N)=O)ccc1-c1cc2c(N[C@H](CO)c3ccccc3)ncnc2s1
2. COc1cc(CO)ccc1-c1cc2c(N[C@H](CO)c3ccccc3)ncnc2s1
3. C#Cc1cccc(Nc2ncnc3cc(OCCOC)c(OCCOC)cc23)c1 [ERLOTINIB]
4. CN(C)CCNC(=O)c1ccc(-c2cc3c(N[C@H](CO)c4ccccc4)ncnc3s2)cc1

1: -2; 2: 9; 3: 25; 4: -3

// each listed molecule needs a value for inhibition
1. C[C@@H](Nc1ncnc2sc(-c3ccccc3C(N)=O)cc12)c1ccccc1
2. COc1cc(CO)ccc1-c1cc2c(Nc3ccc(F)c(Cl)c3)ncnc2s1

1. -8
2. -3

###

Please provide measured inhibition for the entries that follow.
target: MAP kinase-activated protein kinase 2 (Homo sapiens); test: Inhibition of MAPKAPK2 (unknown origin) at 500 nM
Answers are plain numbers, in %.

Here is how some compounds turned out for inhibition.
| smiles string | result unit | reported value |
| --- | --- | --- |
| COc1cc(C(N)=O)ccc1-c1cc2c(N[C@H](CO)c3ccccc3)ncnc2s1 | % | -7 |
| COc1cc(CO)ccc1-c1cc2c(N[C@H](C)c3ccccc3)ncnc2s1 | % | 1 |
| COc1cc(CO)ccc1-c1cc2c(N[C@H](CO)c3ccccc3)ncnc2s1 | % | 8 |
| COc1ccc(C(=O)NCCN(C)C)cc1-c1cc2c(N[C@H](C)c3ccccc3)ncnc2s1 | % | -1 |

// each listed compound needs a value for inhibition
1. CN(C)CCNC(=O)c1ccc(-c2cc3c(N[C@H](CO)c4ccccc4)ncnc3s2)cc1
2. C#Cc1cccc(Nc2ncnc3cc(OCCOC)c(OCCOC)cc23)c1
3. COc1cc(CO)ccc1-c1cc2c(Nc3ccc(F)c(Cl)c3)ncnc2s1
4. COc1cc(CO)ccc1-c1cc2c(Nc3ccccc3)ncnc2s1
5. C[C@@H](Nc1ncnc2sc(-c3ccccc3C(N)=O)cc12)c1ccccc1

2
-1
3
4
-8

###

Please provide measured inhibition for the entries that follow.
target: Serine/threonine-protein kinase PLK1 (Homo sapiens); assay: Inhibition of PLK1 (unknown origin) at 500 nM

Here is how some molecules turned out for inhibition.
| smiles string | inhibition |
| --- | --- |
| COc1cc(CO)ccc1-c1cc2c(Nc3ccccc3)ncnc2s1 | 2% |
| C#Cc1cccc(Nc2ncnc3sc(-c4ccc(CO)cc4OC)cc23)c1 | -8% |
| C#Cc1cccc(Nc2ncnc3cc(OCCOC)c(OCCOC)cc23)c1 | -9% |
| C[C@@H](Nc1ncnc2sc(-c3ccccc3C(N)=O)cc12)c1ccccc1 | -3% |
| CN(C)CCNC(=O)c1ccc(-c2cc3c(N[C@H](CO)c4ccccc4)ncnc3s2)cc1 | 6% |

Quick one: inhibition of C[C@@H](Nc1ncnc2sc(-c3ccc(C(=O)NCCN(C)C)cc3)cc12)c1ccccc1 ?
1%

###

target: Tyrosine-protein kinase Lyn (Homo sapiens) (UniProt P07948); test: Inhibition of LYN B (unknown origin) at 500 nM
Sequence (P07948 2-512 limits assumed): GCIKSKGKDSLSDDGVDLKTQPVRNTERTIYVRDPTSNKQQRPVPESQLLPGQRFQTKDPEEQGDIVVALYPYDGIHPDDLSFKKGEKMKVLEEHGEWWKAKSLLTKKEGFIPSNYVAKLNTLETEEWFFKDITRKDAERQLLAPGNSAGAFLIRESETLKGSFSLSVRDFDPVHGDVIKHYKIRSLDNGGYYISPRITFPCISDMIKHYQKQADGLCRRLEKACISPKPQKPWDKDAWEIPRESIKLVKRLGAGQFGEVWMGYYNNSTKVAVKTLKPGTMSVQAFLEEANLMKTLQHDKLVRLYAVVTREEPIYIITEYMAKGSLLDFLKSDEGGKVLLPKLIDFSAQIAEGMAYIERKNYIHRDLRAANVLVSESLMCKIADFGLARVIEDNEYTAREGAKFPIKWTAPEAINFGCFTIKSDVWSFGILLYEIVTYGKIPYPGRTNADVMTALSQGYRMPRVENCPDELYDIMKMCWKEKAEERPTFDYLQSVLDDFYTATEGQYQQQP
Please provide measured inhibition for the entries that follow.
Give bare numbers, in %.

Here is how some compounds turned out for inhibition.
| smiles string | metric name | reported value |
| --- | --- | --- |
| COc1cc(CO)ccc1-c1cc2c(Nc3ccccc3)ncnc2s1 | inhibition | 22 |
| COc1cc(C(N)=O)ccc1-c1cc2c(N[C@H](CO)c3ccccc3)ncnc2s1 | inhibition | 57 |
| COc1cc(CO)ccc1-c1cc2c(N[C@H](C)c3ccccc3)ncnc2s1 | inhibition | 57 |
| COc1ccc(C(=O)NCCN(C)C)cc1-c1cc2c(N[C@H](C)c3ccccc3)ncnc2s1 | inhibition | 62 |

Kindly consider the entry below.
Quick one: inhibition of COc1cc(CO)ccc1-c1cc2c(N[C@H](CO)c3ccccc3)ncnc2s1 ?
56

###

biological target: Inhibitor of nuclear factor kappa-B kinase subunit beta (Homo sapiens) (UniProt O14920); assay: Inhibition of IKBKB (unknown origin) at 500 nM
Sequence (O14920 whole entry): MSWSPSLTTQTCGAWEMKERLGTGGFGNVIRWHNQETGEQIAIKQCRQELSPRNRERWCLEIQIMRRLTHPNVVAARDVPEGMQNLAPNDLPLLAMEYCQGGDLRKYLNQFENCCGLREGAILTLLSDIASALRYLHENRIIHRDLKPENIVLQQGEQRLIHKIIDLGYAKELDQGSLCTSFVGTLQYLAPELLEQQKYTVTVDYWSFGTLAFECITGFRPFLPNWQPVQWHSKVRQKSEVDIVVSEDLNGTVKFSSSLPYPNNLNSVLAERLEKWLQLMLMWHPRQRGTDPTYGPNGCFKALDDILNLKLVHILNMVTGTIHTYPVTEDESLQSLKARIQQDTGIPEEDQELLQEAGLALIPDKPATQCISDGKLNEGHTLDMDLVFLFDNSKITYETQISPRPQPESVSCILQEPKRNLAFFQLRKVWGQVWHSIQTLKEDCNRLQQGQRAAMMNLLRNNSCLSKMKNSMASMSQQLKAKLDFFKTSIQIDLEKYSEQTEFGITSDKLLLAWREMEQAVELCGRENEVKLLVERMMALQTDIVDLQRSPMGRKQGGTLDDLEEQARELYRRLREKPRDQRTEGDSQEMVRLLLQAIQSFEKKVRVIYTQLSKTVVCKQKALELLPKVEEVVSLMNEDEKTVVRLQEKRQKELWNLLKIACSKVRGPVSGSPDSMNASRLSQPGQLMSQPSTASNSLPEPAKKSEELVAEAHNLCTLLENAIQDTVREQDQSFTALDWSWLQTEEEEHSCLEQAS
Please provide measured inhibition for the entries that follow.
Answers are plain numbers, in %.

Here is how some molecules turned out for inhibition.
| smiles string | result unit | inhibition |
| --- | --- | --- |
| COc1cc(CO)ccc1-c1cc2c(N[C@H](C)c3ccccc3)ncnc2s1 | % | 10 |
| C#Cc1cccc(Nc2ncnc3cc(OCCOC)c(OCCOC)cc23)c1 | % | -5 |
| CN(C)CCNC(=O)c1ccc(-c2cc3c(N[C@H](CO)c4ccccc4)ncnc3s2)cc1 | % | 3 |

// each listed molecule needs a value for inhibition
1. COc1cc(CO)ccc1-c1cc2c(Nc3ccccc3)ncnc2s1
2. COc1cc(CO)ccc1-c1cc2c(N[C@H](CO)c3ccccc3)ncnc2s1
3. COc1cc(CO)ccc1-c1cc2c(Nc3ccc(F)c(Cl)c3)ncnc2s1

4
1
1

###

experiment: Toxicity in zebrafish embryo assessed as morphological defects for 3.5 days; type: organism-based, Danio rerio
metric name: EC50 at 3.5 days (µM)
Answers are plain numbers, in µM.

// each listed molecule needs a value for EC50 at 3.5 days
1. COc1cc(CO)ccc1-c1cc2c(N[C@H](CO)c3ccccc3)ncnc2s1
2. COc1cc(C(N)=O)ccc1-c1cc2c(N[C@H](CO)c3ccccc3)ncnc2s1

[49, 46]

// each listed molecule needs a value for EC50 at 3.5 days
1. COc1cccc(OC)c1-c1cc2c(N[C@H](CO)c3ccccc3)ncnc2s1
2. C#Cc1cccc(Nc2ncnc3cc(OCCOC)c(OCCOC)cc23)c1 [ERLOTINIB]

[12, 60]

###

assay: Antiproliferative activity against human BT474 cells after 72 hrs by CellTiter blue assay; assay type: functional, cell-based; settings: BT-474, 72 h
Please provide measured IC50 for the entries that follow.
Answers are plain numbers, in µM.

| smiles string | IC50 (µM) |
| --- | --- |
| COc1cc(CO)ccc1-c1cc2c(N[C@H](CO)c3ccccc3)ncnc2s1 | 11 |

Kindly consider the entry below.
Quick one: IC50 of C#Cc1cccc(Nc2ncnc3cc(OCCOC)c(OCCOC)cc23)c1 ?
13

###

assay: Intrinsic clearance in human liver microsomes at 3 uM by LC-MS/MS analysis; format: ADME; conditions: read-out: CLH
Please provide measured microsomal CLint at 3 µM for the entries that follow.
One number for each entry, in µL/min/mg.

Here is how some compounds turned out for microsomal CLint at 3 µM.
| smiles string | microsomal CLint at 3 µM / µL/min/mg |
| --- | --- |
| COc1cc(C(=O)NCCN(C)C)ccc1-c1cc2c(N[C@H](C)c3ccccc3)ncnc2s1 | 6.1 |
| COc1cccc(OC)c1-c1cc2c(N[C@H](CO)c3ccccc3)ncnc2s1 | 41 |

Kindly consider the entry below.
Quick one: microsomal CLint at 3 µM of COc1cc(C(=O)NCCN(C)C)cc(OC)c1-c1cc2c(N[C@H](C)c3ccccc3)ncnc2s1 ?
9.7

###

biological target: Serine/threonine-protein kinase Chk1 (Homo sapiens) (UniProt O14757); test: Inhibition of CHEK1 (unknown origin) at 500 nM
Sequence (O14757 whole entry): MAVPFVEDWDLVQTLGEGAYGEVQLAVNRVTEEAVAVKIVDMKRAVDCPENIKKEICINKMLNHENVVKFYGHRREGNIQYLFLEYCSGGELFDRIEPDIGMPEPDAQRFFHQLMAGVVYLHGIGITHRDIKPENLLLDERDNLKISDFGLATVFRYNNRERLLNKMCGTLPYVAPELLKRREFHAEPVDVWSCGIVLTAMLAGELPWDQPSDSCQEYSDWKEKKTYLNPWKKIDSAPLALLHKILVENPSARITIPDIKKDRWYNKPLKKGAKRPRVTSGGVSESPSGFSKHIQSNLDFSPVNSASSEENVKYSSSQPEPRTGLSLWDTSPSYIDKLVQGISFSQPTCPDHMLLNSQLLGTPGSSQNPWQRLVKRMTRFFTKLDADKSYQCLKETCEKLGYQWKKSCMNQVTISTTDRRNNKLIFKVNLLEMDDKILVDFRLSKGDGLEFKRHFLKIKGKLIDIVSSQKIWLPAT
Please provide measured inhibition for the entries that follow.
One number for each entry, in %.

Here is how some compounds turned out for inhibition.
| smiles string | inhibition (%) |
| --- | --- |
| C#Cc1cccc(Nc2ncnc3cc(OCCOC)c(OCCOC)cc23)c1 | -7 |
| COc1cc(CO)ccc1-c1cc2c(N[C@H](CO)c3ccccc3)ncnc2s1 | 15 |
| CN(C)CCNC(=O)c1ccc(-c2cc3c(N[C@H](CO)c4ccccc4)ncnc3s2)cc1 | -5 |
| COc1ccc(C(=O)NCCN(C)C)cc1-c1cc2c(N[C@H](C)c3ccccc3)ncnc2s1 | -8 |
| C[C@@H](Nc1ncnc2sc(-c3ccc(C(=O)NCCN(C)C)cc3)cc12)c1ccccc1 | -6 |

// each listed compound needs a value for inhibition
1. C[C@@H](Nc1ncnc2sc(-c3ccccc3C(N)=O)cc12)c1ccccc1
2. COc1cc(CO)ccc1-c1cc2c(N[C@H](C)c3ccccc3)ncnc2s1
3. C#Cc1cccc(Nc2ncnc3sc(-c4ccc(CO)cc4OC)cc23)c1

[-4, 1, -3]

###

Please provide measured inhibition for the entries that follow.
molecular target: Ephrin type-A receptor 1 (Homo sapiens); assay: Inhibition of EPHA1 (unknown origin) at 500 nM
Answers are plain numbers, in %.

| molecule | measurement target | inhibition [%] |
| --- | --- | --- |
| COc1cc(C(N)=O)ccc1-c1cc2c(N[C@H](CO)c3ccccc3)ncnc2s1 | Ephrin type-A receptor 1 (Homo sapiens) | 12 |
| COc1cc(CO)ccc1-c1cc2c(Nc3ccc(F)c(Cl)c3)ncnc2s1 | Ephrin type-A receptor 1 (Homo sapiens) | 12 |

// each listed molecule needs a value for inhibition
1. C[C@@H](Nc1ncnc2sc(-c3ccc(C(=O)NCCN(C)C)cc3)cc12)c1ccccc1
2. COc1cc(CO)ccc1-c1cc2c(N[C@H](C)c3ccccc3)ncnc2s1
3. COc1cc(CO)ccc1-c1cc2c(N[C@H](CO)c3ccccc3)ncnc2s1
4. CN(C)CCNC(=O)c1ccc(-c2cc3c(N[C@H](CO)c4ccccc4)ncnc3s2)cc1
5. COc1cc(CO)ccc1-c1cc2c(Nc3ccccc3)ncnc2s1

[11, 1, 1, 15, 13]

// each listed molecule needs a value for inhibition
1. C#Cc1cccc(Nc2ncnc3sc(-c4ccc(CO)cc4OC)cc23)c1
2. COc1ccc(C(=O)NCCN(C)C)cc1-c1cc2c(N[C@H](C)c3ccccc3)ncnc2s1
3. C#Cc1cccc(Nc2ncnc3cc(OCCOC)c(OCCOC)cc23)c1 [ERLOTINIB]
4. C[C@@H](Nc1ncnc2sc(-c3ccccc3C(N)=O)cc12)c1ccccc1

1: 2; 2: 7; 3: 3; 4: 11
